The values you see were collected from patent US20230406883A1.

Biological target: hNK1R (Homo sapiens)
Construct: host or cells: COS-7
Sequence (P25103 whole entry): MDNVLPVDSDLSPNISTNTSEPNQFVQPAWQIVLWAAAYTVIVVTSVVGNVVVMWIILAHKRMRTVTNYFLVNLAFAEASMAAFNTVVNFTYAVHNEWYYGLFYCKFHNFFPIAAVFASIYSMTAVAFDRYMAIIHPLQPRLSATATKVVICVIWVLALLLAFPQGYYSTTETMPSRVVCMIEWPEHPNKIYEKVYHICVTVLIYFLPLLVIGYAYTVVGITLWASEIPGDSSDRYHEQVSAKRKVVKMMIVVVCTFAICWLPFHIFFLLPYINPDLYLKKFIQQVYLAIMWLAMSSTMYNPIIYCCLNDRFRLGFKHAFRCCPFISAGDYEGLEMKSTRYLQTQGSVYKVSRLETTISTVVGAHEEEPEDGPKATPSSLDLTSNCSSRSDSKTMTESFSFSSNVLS
Assay: IP3 assay (inositol trisphosphate, 3H-myoinositol) in transiently transfected COS-7 cells
Assay type: cell-based
Conditions: COS-7 cells; figure legends: percent of 10^-6 M NKA
Numbered stars: 1 amine (or outer) side, 2 acyl side, 3 side chain; on linkers, the order of the positions; unused ones are H or OH. Square brackets hold non-standard residues; d marks the D form. Peptide text beside a SMILES is read from it. * marks the point of attachment. C18 diacid = O=C(O)CCCCCCCCCCCCCCCCC(=O)*; γGlu = O=C(O)[C@H](CCC(=O)[*:2])N[*:1]; NMeL = CN[C@@H](CC(C)C)C(=O)O; Nle = CCCC[C@H](N)C(=O)O; AEEA = NCCOCCOCC(=O)O; βAla = NCCC(=O)O
experimental endpoint: hNK1R, IP3 Efficacy (%)
# unit: % | format: bare number

COc1ccc(C[C@H](NC(=O)[C@H](CC(C)C)N(C)C(=O)CNC(=O)[C@@H](NC(=O)[C@H](Cc2ccccc2)NC(=O)[C@H](CCCCN)NC(=O)[C@H](CC(=O)O)NC(=O)COCCOCCNC(=O)COCCOCCNC(=O)CC[C@H](NC(=O)CCCCCCCCCCCCCCCCC(=O)O)C(=O)O)C(C)C)C(N)=O)cc1 [compound 370, *Asp;Lys;Phe;Val;Gly;NmLeu;4-MeOPhe;NH2] ({C18 diacid-γGlu-AEEA-AEEA}-DKFVG[NMeL]Y(Me)-NH2) : 20
CCCC[C@H](NC(=O)[C@H](CC(C)C)NC(=O)CCNC(=O)[C@@H](NC(=O)[C@H](Cc1ccccc1)NC(=O)[C@H](CO)NC(=O)[C@H](CC(=O)O)NC(=O)[C@@H](NC(=O)[C@H](CCCCN)NC(=O)COCCOCCNC(=O)COCCOCCNC(=O)CC[C@H](NC(=O)CCCCCCCCCCCCCCCCC(=O)O)C(=O)O)[C@@H](C)O)C(C)C)C(N)=O [compound 322] ({C18 diacid-γGlu-AEEA-AEEA}-KTDSFV[βAla]L[Nle]-NH2) : 0

Proceed to the following item.
# molecule CCCC[C@H](NC(=O)[C@H](CC(C)C)N(C)C(=O)CNC(=O)[C@H](CCCNC(=N)N)NC(=O)[C@H](Cc1ccccc1)NC(=O)[C@H](CCCCN)NC(=O)[C@H](CCC(=O)O)NC(=O)COCCOCCNC(=O)COCCOCCNC(=O)CC[C@H](NC(=O)CCCCCCCCCCCCCCCCC(=O)O)C(=O)O)C(N)=O [compound 315, *Glu;Lys;Phe;Arg;Gly;NmLeu;Nle;NH2] ({C18 diacid-γGlu-AEEA-AEEA}-EKFRG[NMeL][Nle]-NH2) ; its hNK1R, IP3 Efficacy = 0

* * *

Molecular target: hNK3R (Homo sapiens)
Construct: host or cells: COS-7
Sequence (P29371 whole entry): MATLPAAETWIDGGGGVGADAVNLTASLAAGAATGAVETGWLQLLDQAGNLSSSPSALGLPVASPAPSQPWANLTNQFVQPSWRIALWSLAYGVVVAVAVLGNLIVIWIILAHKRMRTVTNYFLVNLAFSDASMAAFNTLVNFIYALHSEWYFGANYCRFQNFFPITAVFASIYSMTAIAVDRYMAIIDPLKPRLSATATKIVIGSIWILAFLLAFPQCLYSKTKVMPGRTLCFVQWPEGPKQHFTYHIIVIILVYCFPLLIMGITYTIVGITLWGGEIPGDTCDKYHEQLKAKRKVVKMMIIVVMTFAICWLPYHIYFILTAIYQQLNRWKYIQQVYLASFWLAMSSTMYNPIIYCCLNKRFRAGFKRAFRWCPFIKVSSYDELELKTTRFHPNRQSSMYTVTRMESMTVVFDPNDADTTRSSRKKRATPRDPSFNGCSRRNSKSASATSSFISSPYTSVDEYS
Test: IP3 assay (inositol trisphosphate, 3H-myoinositol) in transiently transfected COS-7 cells
Type: cell-based
Details: COS-7 cells; figure legends: percent of 10^-6 M NKA
Numbered stars: 1 amine (or outer) side, 2 acyl side, 3 side chain; on linkers, the order of the positions; unused ones are H or OH. Square brackets hold non-standard residues; d marks the D form. Peptide text beside a SMILES is read from it. * marks the point of attachment. C18 diacid = O=C(O)CCCCCCCCCCCCCCCCC(=O)*; γGlu = O=C(O)[C@H](CCC(=O)[*:2])N[*:1]; NMeL = CN[C@@H](CC(C)C)C(=O)O; Nle = CCCC[C@H](N)C(=O)O; AEEA = NCCOCCOCC(=O)O
hNK3, IP3 Efficacy for assorted compounds
# unit: % | format: bare number

Below are worked cases with known answers.
CSCC[C@H](NC(=O)[C@H](CC(C)C)N(C)C(=O)CNC(=O)[C@@H](NC(=O)[C@H](Cc1ccc(O)cc1)NC(=O)[C@H](CCCCN)NC(=O)[C@H](CC(=O)O)NC(=O)COCCOCCNC(=O)COCCOCCNC(=O)CC[C@H](NC(=O)CCCCCCCCCCCCCCCCC(=O)O)C(=O)O)C(C)C)C(N)=O [compound 316, *Asp;Lys;Tyr;Val;Gly;NmLeu;Met;NH2] ({C18 diacid-γGlu-AEEA-AEEA}-DKYVG[NMeL]M-NH2) : 50
CCCC[C@H](NC(=O)[C@H](CC(C)C)N(C)C(=O)CNC(=O)[C@@H](NC(=O)[C@H](Cc1ccccc1)NC(=O)[C@H](CCCNC(=N)N)NC(=O)[C@H](CCC(=O)O)NC(=O)COCCOCCNC(=O)COCCOCCNC(=O)CC[C@H](NC(=O)CCCCCCCCCCCCCCCCC(=O)O)C(=O)O)C(C)C)C(N)=O [compound 337, *Glu;Arg;Phe;Val;Gly;NmLeu;Nle;NH2] ({C18 diacid-γGlu-AEEA-AEEA}-ERFVG[NMeL][Nle]-NH2) : 100

# compound CCCC[C@H](NC(=O)[C@H](CC(C)C)N(C)C(=O)CNC(=O)[C@@H](NC(=O)[C@H](Cc1ccccc1)NC(=O)[C@H](CCCCN)NC(=O)[C@@H](N)CC(=O)O)C(C)C)C(N)=O [compound 375, Asp;Lys;Phe;Val;Gly;NmLeu;Nle;NH2] ; its hNK3, IP3 Efficacy = 35
